Target: Adenosine receptor A3 (Homo sapiens, UniProt P0DMS8)
Sequence (P0DMS8 whole entry): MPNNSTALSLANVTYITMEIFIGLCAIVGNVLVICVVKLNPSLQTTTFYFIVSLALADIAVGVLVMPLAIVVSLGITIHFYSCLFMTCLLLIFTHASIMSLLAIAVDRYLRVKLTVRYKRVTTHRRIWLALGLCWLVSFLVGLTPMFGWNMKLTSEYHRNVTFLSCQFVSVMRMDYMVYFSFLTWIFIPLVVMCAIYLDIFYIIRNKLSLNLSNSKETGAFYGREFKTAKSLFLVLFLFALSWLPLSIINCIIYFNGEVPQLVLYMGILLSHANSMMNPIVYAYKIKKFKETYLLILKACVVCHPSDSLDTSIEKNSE
Assay: Binding affinity at human Adenosine A3 receptor expressed in HEK 293 cells by [125I]AB-MECA displacement.
Type: cell-based, HEK293
pKi: −log10 of the molar value.
Kind request: treat 7 as inclusive, so pKi at 7 or higher is YES, anything lower is NO.

# input Threshold query (pKi >= 7) on CNC(=O)[C@H]1OC(n2cnc3c(NCc4ccccc4)ncnc32)[C@@H](O)[C@H]1O (stereo partly drawn)
# output YES

# input Kindly determine if pKi recorded for `CCCSC[C@H]1O[C@@H](n2cnc3c(NC4CCCC4)ncnc32)[C@H](O)[C@@H]1O` is above or exactly 7.
# output NO

# input Is reported pKi greater than or equal to 7 here: OC[C@H]1O[C@@H](n2cnc3c(NCc4ccccc4)ncnc32)[C@H](O)[C@@H]1O [N6-BENZYLADENOSINE]
# output NO

---

molecular target: UniProt P0DMS8; assay: Inhibition of forskolin-stimulated cAMP production mediated by human adenosine A3 receptor expressed in CHO cells at 10 uM; assay type: functional, cell-based
Label 1 when inhibition >= 90%; otherwise 0.

Check out these entries, answers already filled in.
> print(dat)
                                   molecule  assigned.class
1  OC[C@H]1O[C@@H](n2cnc3c(NCc4cccc(I)c4)ncnc32)[C@H](O)[C@@H]1O               0
2  OC[C@H]1O[C@@H](n2cnc3c(NCc4ccccc4)ncnc32)[C@H](O)[C@@H]1O [N6-BENZYLADENOSINE]               0
3  CSC[C@H]1O[C@@H](n2cnc3c(NCc4ccccc4)ncnc32)[C@H](O)[C@@H]1O               0
4  CSC[C@H]1O[C@@H](n2cnc3c(NCc4cccc(I)c4)ncnc32)[C@H](O)[C@@H]1O               0

Now consider a different molecule.
# input // inclusive: inhibition at least 90%? input: `CCNC(=O)[C@H]1O[C@@H](n2cnc3c(N)ncnc32)[C@H](O)[C@@H]1O`
# output 1

---

target: Adenosine receptor A3 (Homo sapiens, UniProt P0DMS8); test: Binding affinity at human Adenosine A3 receptor expressed in HEK 293 cells by [125I]AB-MECA displacement.; format: cell-based, HEK293
REPORTED_PROPERTY: pKi
One number for each entry, as −log10 of the molar value.

Some compounds with recorded pKi:
> print(dat)
                                    compound  obs.value
 1  CCSC[C@H]1O[C@@H](n2cnc3c(NCc4cccc(I)c4)ncnc32)[C@H](O)[C@@H]1O       7.76
 2  O[C@H]1[C@@H](c2ccon2)OC(n2cnc3c(NCc4cccc(I)c4)nc(Cl)nc32)[C@H]1O (some centres not stated)       8.11
 3  O[C@@H]1[C@H](O)[C@@H](CCl)O[C@H]1n1cnc2c(NCc3cccc(I)c3)ncnc21       6.73
 4  CC(C)SC[C@H]1O[C@@H](n2cnc3c(NCc4cccc(I)c4)ncnc32)[C@H](O)[C@@H]1O       7.33
 5  CCSC[C@H]1O[C@@H](n2cnc3c(NC4CCCC4)ncnc32)[C@H](O)[C@@H]1O       7.05
 6  O[C@@H]1[C@H](O)[C@@H](CCl)O[C@H]1n1cnc2c(NC3CCCC3)ncnc21       5.89
 7  CSC[C@H]1O[C@@H](n2cnc3c(NC4CCCC4)ncnc32)[C@H](O)[C@@H]1O       7.13
 8  O[C@@H]1[C@H](O)[C@@H](CCl)O[C@H]1n1cnc2c(NCc3ccccc3)ncnc21       5.73
 9  COc1cccc(CNc2nc(Cl)nc3c2ncn3C2O[C@H](c3ccon3)[C@H](O)[C@@H]2O)c1 (some centres not stated)       7.51
10  CCSC[C@H]1O[C@@H](n2cnc3c(NCc4ccccc4)ncnc32)[C@H](O)[C@@H]1O       6.80

Here are 2 compounds. What values of pKi were reported for them?
1. OC[C@H]1O[C@@H](n2cnc3c(NC4CCCC4)ncnc32)[C@H](O)[C@@H]1O
2. CC(C)SC[C@H]1O[C@@H](n2cnc3c(NC4CCCC4)ncnc32)[C@H](O)[C@@H]1O

# output
1: 6.92; 2: 6.86

---

biological target: Adenosine receptor A3 (Homo sapiens, UniProt P0DMS8); experiment: Effective concentration for stimulation of [35S]GTP-gamma-S, binding to human adenosine A3 receptor; type: functional
REPORTED_PROPERTY: pEC50
One number for each entry, as −log10 of the molar value.

> print(dat)
                                   compound  reported.property  obs.value
1  CSC[C@H]1O[C@@H](n2cnc3c(NCc4cccc(I)c4)ncnc32)[C@H](O)[C@@H]1O              pEC50       7.57
2  OC[C@H]1O[C@@H](n2cnc3c(NCc4ccccc4)ncnc32)[C@H](O)[C@@H]1O [N6-BENZYLADENOSINE]              pEC50       6.42

# input Recorded pEC50 for `CSC[C@H]1O[C@@H](n2cnc3c(NCc4ccccc4)ncnc32)[C@H](O)[C@@H]1O` , please?
# output 6.33

---

target: Adenosine receptor A3 (Homo sapiens); assay: Percentage of [35S]GTP-gamma-S, binding to the human adenosine A3 receptor stimulated at 10E-4 M; type: functional
REPORTED_PROPERTY: Radioligand bound

> print(dat)
                                 smiles.str  obs.value
1  CCSC[C@H]1O[C@@H](n2cnc3c(NCc4ccccc4)ncnc32)[C@H](O)[C@@H]1O        19%
2  CC(C)SC[C@H]1O[C@@H](n2cnc3c(NCc4ccccc4)ncnc32)[C@H](O)[C@@H]1O        22%
3  O[C@@H]1[C@H](O)[C@@H](CCl)O[C@H]1n1cnc2c(NCc3ccccc3)ncnc21        13%
4  CC(C)SC[C@H]1O[C@@H](n2cnc3c(NCc4cccc(I)c4)ncnc32)[C@H](O)[C@@H]1O        16%
5  CCSC[C@H]1O[C@@H](n2cnc3c(NCc4cccc(I)c4)ncnc32)[C@H](O)[C@@H]1O        21%

For every item in the list below, what is its measured Radioligand bound?
1. O[C@@H]1[C@H](O)[C@@H](CCl)O[C@H]1n1cnc2c(NCc3cccc(I)c3)ncnc21
2. CSC[C@H]1O[C@@H](n2cnc3c(NCc4ccccc4)ncnc32)[C@H](O)[C@@H]1O
3. CCCSC[C@H]1O[C@@H](n2cnc3c(NCc4ccccc4)ncnc32)[C@H](O)[C@@H]1O
4. CCCSC[C@H]1O[C@@H](n2cnc3c(NCc4cccc(I)c4)ncnc32)[C@H](O)[C@@H]1O

# output
1. 8%
2. 52%
3. 7%
4. 10%

---

molecular target: Adenosine receptor A3 (Homo sapiens) (UniProt P0DMS8); test: Percentage of [35S]GTP-gamma-S, binding to the human adenosine A3 receptor stimulated at 10E-4 M; assay type: functional
Please respond with reported Radioligand bound for every item in the list.
Numbers only, in %.

Below are worked cases with known answers.
> print(dat)
                                   molecule  obs.value
1  OC[C@H]1O[C@@H](n2cnc3c(NCc4ccccc4)ncnc32)[C@H](O)[C@@H]1O [N6-BENZYLADENOSINE]         81
2  CCNC(=O)[C@H]1O[C@@H](n2cnc3c(N)ncnc32)[C@H](O)[C@@H]1O        100
3  CSC[C@H]1O[C@@H](n2cnc3c(NCc4cccc(I)c4)ncnc32)[C@H](O)[C@@H]1O         41

# input Could you tell me which Radioligand bound is on file for `OC[C@H]1O[C@@H](n2cnc3c(NCc4cccc(I)c4)ncnc32)[C@H](O)[C@@H]1O` ?
# output 56

---

biological target: Adenosine receptors; A1 & A3 (Rattus norvegicus) (UniProt P25099+P28647); test: Ratio of displacement of A1 receptor to A3 receptor; assay type: protein assay
REPORTED_PROPERTY: Ratio
Numbers only.

Here are 6 compounds together with their reported answers.
> print(dat)
                                 smiles.str  reported.property  obs.value
1  O[C@@H]1[C@H](O)[C@@H](CCl)O[C@H]1n1cnc2c(NC3CCCC3)ncnc21              Ratio      0.007
2  CCSC[C@H]1O[C@@H](n2cnc3c(NC4CCCC4)ncnc32)[C@H](O)[C@@H]1O              Ratio        0.5
3  CC(C)SC[C@H]1O[C@@H](n2cnc3c(NC4CCCC4)ncnc32)[C@H](O)[C@@H]1O              Ratio        0.3
4  CCSC[C@H]1O[C@@H](n2cnc3c(NCc4cccc(I)c4)ncnc32)[C@H](O)[C@@H]1O              Ratio       41.1
5  CCCSC[C@H]1O[C@@H](n2cnc3c(NCc4ccccc4)ncnc32)[C@H](O)[C@@H]1O              Ratio        8.7
6  CSC[C@H]1O[C@@H](n2cnc3c(NCc4cccc(I)c4)ncnc32)[C@H](O)[C@@H]1O              Ratio       69.5

# input Name the recorded Ratio for `CSC[C@H]1O[C@@H](n2cnc3c(NC4CCCC4)ncnc32)[C@H](O)[C@@H]1O` .
# output 0.8
